# Tested on: Trypanosoma cruzi
# ASSAY NAME: Inhibition of Trypanosoma cruzi Ribose 5-phosphate isomerase type B assessed as residual activity at 2 mM using ribose 5-phosphate as substrate relative to control
Listing of entries alongside the reported Activity.

[
  {
    "SMILES ENTRY": "O=C(CCl)NCCOP(=O)(O)O",
    "Activity (%)": 83.7
  },
  {
    "SMILES ENTRY": "O=C(CI)NCCOP(=O)(O)O",
    "Activity (%)": 0
  },
  {
    "SMILES ENTRY": "O=C(CBr)NCCOP(=O)(O)O",
    "Activity (%)": 18.3
  },
  {
    "SMILES ENTRY": "O=C(Cc1ccccc1)NCCOP(=O)(O)O",
    "Activity (%)": 89.2
  }
]
